Assay: Pharmacokinetic study in rats after intragastric and intravenous administration (UHPLC-MS/MS of plasma)
Type: in vivo, Sprague–Dawley rats
Conditions: Sprague-Dawley, rat, plasma, po, 25 mg/kg, i.g. mid dose 25 mg/kg, mean ± SD, n = 6
property label: Tmax

Task item: Please report the recorded Tmax for COc1c(Br)cc(C[C@H](NC(=O)Cc2ccc(OCCCNC(C)=O)cc2)C(=O)NCCc2cc(Br)c(O)c(Br)c2)cc1Br [itampolin A, Itampolin A] .
Reply: 1.7 h

###

Assay: Pharmacokinetic study in rats after intragastric and intravenous administration (UHPLC-MS/MS of plasma)
Assay type: in vivo, Sprague–Dawley rats
Settings: Sprague-Dawley, rat, iv, i.v. 5 mg/kg, plasma, mean ± SD, n = 6
property label: clearance (mL/min/kg)
Write the number in mL/min/kg without appending the unit.

Task item: Please report the recorded clearance for "COc1c(Br)cc(C[C@H](NC(=O)Cc2ccc(OCCCNC(C)=O)cc2)C(=O)NCCc2cc(Br)c(O)c(Br)c2)cc1Br" .
Reply: 30

###

Assay: Pharmacokinetic study in rats after intragastric and intravenous administration (UHPLC-MS/MS of plasma)
Assay type: in vivo, Sprague–Dawley rats
Settings: Sprague-Dawley, rat, iv, i.v. 5 mg/kg, plasma, mean ± SD, n = 6, read-out: MRT0–∞
property label: MRT inf (h)
Write the number in h without appending the unit.

Task item: Please report the recorded MRT inf for "COc1c(Br)cc(C[C@H](NC(=O)Cc2ccc(OCCCNC(C)=O)cc2)C(=O)NCCc2cc(Br)c(O)c(Br)c2)cc1Br" .
Reply: 4.8

###

Experiment: Pharmacokinetic study in rats after intragastric and intravenous administration (UHPLC-MS/MS of plasma)
Format: in vivo, Sprague–Dawley rats
Details: Sprague-Dawley, rat, plasma, po, 50 mg/kg, intragastric 10, 25 and 50 mg/kg, range over the three doses
property label: half-life

Task item: Please report the recorded half-life for "COc1c(Br)cc(C[C@H](NC(=O)Cc2ccc(OCCCNC(C)=O)cc2)C(=O)NCCc2cc(Br)c(O)c(Br)c2)cc1Br" .
Reply: 2.1 to 2.6 h

###

Assay: Pharmacokinetic study in rats after intragastric and intravenous administration (UHPLC-MS/MS of plasma)
Assay type: in vivo, Sprague–Dawley rats
Conditions: Sprague-Dawley, rat, po, i.g. high dose 50 mg/kg, plasma, mean ± SD, n = 6, read-out: ke (converted)
property label: k el (s⁻¹)
Write the number in s⁻¹ without appending the unit.

Task item: Please report the recorded k el for COc1c(Br)cc(C[C@H](NC(=O)Cc2ccc(OCCCNC(C)=O)cc2)C(=O)NCCc2cc(Br)c(O)c(Br)c2)cc1Br [itampolin A, Itampolin A] .
Reply: 9.17e-05

###

Test: Pharmacokinetic study in rats after intragastric and intravenous administration (UHPLC-MS/MS of plasma)
Type: in vivo, Sprague–Dawley rats
Details: Sprague-Dawley, rat, po, i.g. high dose 50 mg/kg, plasma, mean ± SD, n = 6
property label: AUC(0-t) (ng·h/mL)
Write the number in ng·h/mL without appending the unit.

Task item: Please report the recorded AUC(0-t) for "COc1c(Br)cc(C[C@H](NC(=O)Cc2ccc(OCCCNC(C)=O)cc2)C(=O)NCCc2cc(Br)c(O)c(Br)c2)cc1Br" .
Reply: 2640

###

Assay: Pharmacokinetic study in rats after intragastric and intravenous administration (UHPLC-MS/MS of plasma)
Type: in vivo, Sprague–Dawley rats
Details: Sprague-Dawley, rat, plasma, oral dose 10 mg/kg vs i.v. 5 mg/kg, F = Doseiv × AUCig/(Doseig × AUCiv) × 100%, read-out: absolute bioavailability (F)
property label: bioavailability (%)
Write the number in % without appending the unit.

Task item: Please report the recorded bioavailability for COc1c(Br)cc(C[C@H](NC(=O)Cc2ccc(OCCCNC(C)=O)cc2)C(=O)NCCc2cc(Br)c(O)c(Br)c2)cc1Br [itampolin A, Itampolin A] .
Reply: 18.8
